All figures here come from patent US20210040155A1.

Measured Ratios of EC50 values MC 3/4 (MC3R against MC4R) accompanies every entry in the list below.
- tested_target: melanocortin-3 receptor (human, UniProt P41968 1-323)
- Sequence (P41968 whole entry): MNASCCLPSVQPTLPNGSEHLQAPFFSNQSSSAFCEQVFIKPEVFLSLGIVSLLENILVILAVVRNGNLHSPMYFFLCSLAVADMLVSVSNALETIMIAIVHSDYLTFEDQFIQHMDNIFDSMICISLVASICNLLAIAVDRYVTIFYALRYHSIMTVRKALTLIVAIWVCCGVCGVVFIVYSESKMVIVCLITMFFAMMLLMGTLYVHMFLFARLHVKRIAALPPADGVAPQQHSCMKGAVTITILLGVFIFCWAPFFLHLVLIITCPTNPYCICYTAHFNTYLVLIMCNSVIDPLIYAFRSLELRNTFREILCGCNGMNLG
- assay_name: cell-based or functional assay
Bridge positions count the residues as written; N and C are the ends. Square brackets hold non-standard residues; d marks the D form. dPhe(4-F) = N[C@H](Cc1ccc(F)cc1)C(=O)O

Consider the reported Ratios of EC50 values MC 3/4 (MC3R against MC4R) for these binders:
binder="Ac-RC[dA]P[dPhe(4-F)]RWC-NH2 (disulfide 2-8; SMILES CC(=O)N[C@@H](CCCNC(=N)N)C(=O)N[C@H]1CSSC[C@@H](C(N)=O)NC(=O)[C@H](Cc2c[nH]c3ccccc23)NC(=O)[C@H](CCCNC(=N)N)NC(=O)[C@@H](Cc2ccc(F)cc2)NC(=O)[C@@H]2CCCN2C(=O)[C@@H](C)NC1=O) [Ac-Arg-cyclo[Cys-D-Ala-Pro-D-Phe(p-F)-Arg-Trp-Cys]-NH2]" value_measured="> 400 ratio"
binder="Ac-RC[dA]N[dF]RWC-NH2 (disulfide 2-8; SMILES CC(=O)N[C@@H](CCCNC(=N)N)C(=O)N[C@H]1CSSC[C@@H](C(N)=O)NC(=O)[C@H](Cc2c[nH]c3ccccc23)NC(=O)[C@H](CCCNC(=N)N)NC(=O)[C@@H](Cc2ccccc2)NC(=O)[C@H](CC(N)=O)NC(=O)[C@@H](C)NC1=O) [Ac-Arg-cyclo[Cys-D-Ala-Asn-D-Phe-Arg-Trp-Cys]-NH2]" value_measured="30 ratio"

// below: Ratios of EC50 values MC 3/4 (MC3R against MC4R) requested for another binder
Ask: What measured Ratios of EC50 values MC 3/4 (MC3R against MC4R) goes with Ac-RC[dL]H[dF]RWC-NH2 (disulfide 2-8) [Ac-Arg-cyclo[Cys-D-Leu-His-D-Phe-Arg-Trp-Cys]-NH2] ?
Result: 1.13 ratio
